Provenance of the data: patent US6680025B2

assay: Solubility of photoreactive compounds in 1×TE; assay type: physicochemical; conditions: 1×TE buffer, aqueous buffer, thermodynamic from solid; excess compound heated 50-70° C., stirred at room temperature, filtered; optical density
Property name: solubility (µg/mL)
One number for each entry, in µg/mL.

// query Determine its reported solubility: O=c1ccc2ccc3occc3c2o1 [IP, isopsoralen, reference compound]
// result 2

* * *

experiment: Solubility of photoreactive compounds in 1×TE; assay type: physicochemical; conditions: excess compound heated 50-70° C., stirred at room temperature, filtered; optical density
Marks after values point to notes of the source that are not given here.
For each of the compounds below, state its Solubility in 1 × TE.

Cc1oc2ccc3c(C)cc(=O)oc3c2c1CN
>22,700* ug/ml

Then this compound:
// query Name the recorded Solubility in 1 × TE of the compound listed here: "NCc1cc2occc2c2oc(=O)ccc12"
// result 21,000 ug/ml
